Quick list: concentration at 6 h per entry.
Test: Bronchoalveolar lavage: compound levels in BAL after intratracheal administration
Format: in vivo
Conditions: bronchoalveolar lavage fluid (BAL), other: intratracheal, 0.1 mg/kg, rat, 0.1 mg/mL solution in 5% dextrose, 1 mL/Kg, lungs lavaged after 6 hours, LC/MS/MS
Counter-ions that a name gives are not always drawn.
Reply numerically in ng/mL, unit not repeated.

Use the examples below as a reference point.
CCn1c(CNC(=O)c2nc(Cl)c(N)nc2N)[n+](CC)c2ccc(C(=O)N3CCC(N(C[C@H](O)[C@@H](O)[C@H](O)[C@H](O)CO)C[C@H](O)[C@@H](O)[C@H](O)[C@H](O)CO)CC3)cc21 [Example 1, trifluoroacetic acid trifluoroacetate]
222
CCn1c(CNC(=O)c2nc(Cl)c(N)nc2N)[n+](CC)c2ccc(C(=O)NCCc3ccc(-c4ccc(CCN(C[C@H](O)[C@@H](O)[C@H](O)[C@H](O)CO)C[C@H](O)[C@@H](O)[C@H](O)[C@H](O)CO)cc4)cc3)cc21 [Example 7, trifluoroacetic acid trifluoroacetate]
645
CCn1c(CNC(=O)c2nc(Cl)c(N)nc2N)[n+](CC)c2ccc(C(=O)N3CC[C@@H](N(C[C@H](O)[C@@H](O)[C@H](O)[C@H](O)CO)C[C@H](O)[C@@H](O)[C@H](O)[C@H](O)CO)C3)cc21 [Example 4, trifluoroacetic acid trifluoroacetate]
524
CCn1c(CNC(=O)c2nc(Cl)c(N)nc2N)[n+](CC)c2ccc(C(=O)N3CCC(CN(C[C@H](O)[C@@H](O)[C@H](O)[C@H](O)CO)C[C@H](O)[C@@H](O)[C@H](O)[C@H](O)CO)CC3)cc21 [Example 3, trifluoroacetic acid trifluoroacetate]
210
CCn1c(CNC(=O)c2nc(Cl)c(N)nc2N)[n+](CC)c2ccc(C(=O)NCCN(C[C@H](O)[C@@H](O)[C@H](O)[C@H](O)CO)C[C@H](O)[C@@H](O)[C@H](O)[C@H](O)CO)cc21 [Example 5, trifluoroacetic acid trifluoroacetate]
471

Now consider a different compound.
compound CCn1c(CNC(=O)c2nc(Cl)c(N)nc2N)[n+](CC)c2ccc(C(=O)NCCOCCOCCOCCN(C[C@H](O)[C@@H](O)[C@H](O)[C@H](O)CO)C[C@H](O)[C@@H](O)[C@H](O)[C@H](O)CO)cc21 [Example 6, trifluoroacetic acid trifluoroacetate] , concentration at 6 h observed: 251
